The measured values listed here are drawn from patent US8383683B2.

biological target: 11βHSD1 (Homo sapiens)
Sequence (P28845 whole entry): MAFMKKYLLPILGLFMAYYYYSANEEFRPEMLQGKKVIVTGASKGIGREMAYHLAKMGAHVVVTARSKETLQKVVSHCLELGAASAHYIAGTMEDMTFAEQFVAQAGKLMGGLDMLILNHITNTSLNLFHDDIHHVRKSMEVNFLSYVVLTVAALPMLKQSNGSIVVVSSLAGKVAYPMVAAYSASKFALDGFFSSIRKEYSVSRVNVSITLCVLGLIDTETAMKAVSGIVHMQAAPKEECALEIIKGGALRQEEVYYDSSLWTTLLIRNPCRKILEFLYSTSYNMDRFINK
property_measured: IC50 (µM)

I = O=C(CCCOc1ccc(Cl)cc1Cl)N1CCCCC1c1ccccc1 (centres unmarked)
II = O=C(CCCOc1ccc(Cl)cc1Cl)NC(c1ccccc1)C1CC1 (centres unmarked)
III = CN(C(=O)CCCOc1ccccc1)C1CCC(O)CC1 (centres unmarked)
IV = CCOC(=O)C1CC2CC1CC2N(C)C(=O)CCCOc1ccc(Cl)cc1Cl (centres unmarked)
V = CN(C(=O)CCCOc1ccc(Cl)cc1Cl)C1CCC(C(C)(C)O)CC1 (centres unmarked)
Request: Rank the molecules listed above in increasing order of IC50. Return the labels ranked in the requested order, please.
Result: V, I, II, IV, III
(V: 0.023 µM, I: 0.201 µM, II: 0.405 µM, IV: 0.7 µM, III: 1.82 µM)
